# measuredTarget: N-lysine methyltransferase KMT5A (Homo sapiens) (UniProt Q9NQR1)
# Sequence (whole entry): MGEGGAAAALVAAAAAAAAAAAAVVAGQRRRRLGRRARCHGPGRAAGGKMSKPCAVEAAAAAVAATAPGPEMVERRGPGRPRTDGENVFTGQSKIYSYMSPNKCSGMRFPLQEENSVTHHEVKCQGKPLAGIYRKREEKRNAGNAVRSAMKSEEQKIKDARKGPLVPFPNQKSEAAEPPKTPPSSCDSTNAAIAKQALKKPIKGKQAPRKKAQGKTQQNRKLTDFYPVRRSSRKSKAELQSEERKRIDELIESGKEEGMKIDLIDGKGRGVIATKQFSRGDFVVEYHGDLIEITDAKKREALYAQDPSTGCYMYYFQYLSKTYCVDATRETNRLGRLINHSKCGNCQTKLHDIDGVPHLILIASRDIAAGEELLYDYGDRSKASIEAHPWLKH
# assay: Inhibition of SETD8 (unknown origin) using biotin-labeled histone H4 (1 to 24 residues) as substrate assessed as residual activity at 50 uM in presence of [3H-Me]SAM by scintillation proximity assay relative to control
A collection of molecules and their measured Activity
recordedEndpoint: Activity

CN1CCCC12CCN(C(=O)c1cccc(Br)c1)CC2 :: 103%
CN1CCCCC12CCCN(C(=O)c1cccc(Br)c1)C2 (stereo not drawn) :: 73%
O=C(c1cccc(Br)c1)N1C[C@H]2CCCN[C@H]2C1 :: 90%

====

# measuredTarget: Protein arginine N-methyltransferase 7 (Homo sapiens)
# assay: Inhibition of PRMT7 (unknown origin) using biotin-labeled histone substrate assessed as residual activity at 50 uM in presence of [3H-Me]SAM by scintillation proximity assay relative to control
recordedEndpoint: Activity (%)

O=C(c1cccc(Br)c1)N1CCC2CNCC2C1 (centres undefined) :: 111
O=C(c1cccc(Br)c1)N1C[C@H]2CCCN[C@H]2C1 :: 104
CN1CCCC2(CCCN2C(=O)c2cccc(Br)c2)C1 (centres undefined) :: 103
CN1CCCC12CCN(C(=O)c1cccc(Br)c1)CC2 :: 103

====

# measuredTarget: Histone-lysine N-methyltransferase SUV39H2 (Homo sapiens)
# assay: Inhibition of SUV39H2 (unknown origin) using biotin-labeled histone substrate assessed as residual activity at 50 uM in presence of [3H-Me]SAM by scintillation proximity assay relative to control
A collection of compounds and their measured Activity
recordedEndpoint: Activity (%)

CN1CCC2(CCCN2C(=O)c2cccc(Br)c2)CC1 :: 97
CN1CCCCC12CCN(C(=O)c1cccc(Br)c1)CC2 :: 111
CN1CCC[C@@H]2CN(C(=O)c3cccc(Br)c3)C[C@@H]21 :: 101
O=C(c1cccc(Br)c1)N1CC[C@@H]2[C@@H](CC3CCCCN32)C1 (stereo not given in full) :: 113
CN1CCCC12CCCN(C(=O)c1cccc(Br)c1)C2 (stereo not given) :: 99

====

# measuredTarget: Histone-lysine N-methyltransferase NSD2 (Homo sapiens) (UniProt O96028)
# Sequence (O96028 whole entry): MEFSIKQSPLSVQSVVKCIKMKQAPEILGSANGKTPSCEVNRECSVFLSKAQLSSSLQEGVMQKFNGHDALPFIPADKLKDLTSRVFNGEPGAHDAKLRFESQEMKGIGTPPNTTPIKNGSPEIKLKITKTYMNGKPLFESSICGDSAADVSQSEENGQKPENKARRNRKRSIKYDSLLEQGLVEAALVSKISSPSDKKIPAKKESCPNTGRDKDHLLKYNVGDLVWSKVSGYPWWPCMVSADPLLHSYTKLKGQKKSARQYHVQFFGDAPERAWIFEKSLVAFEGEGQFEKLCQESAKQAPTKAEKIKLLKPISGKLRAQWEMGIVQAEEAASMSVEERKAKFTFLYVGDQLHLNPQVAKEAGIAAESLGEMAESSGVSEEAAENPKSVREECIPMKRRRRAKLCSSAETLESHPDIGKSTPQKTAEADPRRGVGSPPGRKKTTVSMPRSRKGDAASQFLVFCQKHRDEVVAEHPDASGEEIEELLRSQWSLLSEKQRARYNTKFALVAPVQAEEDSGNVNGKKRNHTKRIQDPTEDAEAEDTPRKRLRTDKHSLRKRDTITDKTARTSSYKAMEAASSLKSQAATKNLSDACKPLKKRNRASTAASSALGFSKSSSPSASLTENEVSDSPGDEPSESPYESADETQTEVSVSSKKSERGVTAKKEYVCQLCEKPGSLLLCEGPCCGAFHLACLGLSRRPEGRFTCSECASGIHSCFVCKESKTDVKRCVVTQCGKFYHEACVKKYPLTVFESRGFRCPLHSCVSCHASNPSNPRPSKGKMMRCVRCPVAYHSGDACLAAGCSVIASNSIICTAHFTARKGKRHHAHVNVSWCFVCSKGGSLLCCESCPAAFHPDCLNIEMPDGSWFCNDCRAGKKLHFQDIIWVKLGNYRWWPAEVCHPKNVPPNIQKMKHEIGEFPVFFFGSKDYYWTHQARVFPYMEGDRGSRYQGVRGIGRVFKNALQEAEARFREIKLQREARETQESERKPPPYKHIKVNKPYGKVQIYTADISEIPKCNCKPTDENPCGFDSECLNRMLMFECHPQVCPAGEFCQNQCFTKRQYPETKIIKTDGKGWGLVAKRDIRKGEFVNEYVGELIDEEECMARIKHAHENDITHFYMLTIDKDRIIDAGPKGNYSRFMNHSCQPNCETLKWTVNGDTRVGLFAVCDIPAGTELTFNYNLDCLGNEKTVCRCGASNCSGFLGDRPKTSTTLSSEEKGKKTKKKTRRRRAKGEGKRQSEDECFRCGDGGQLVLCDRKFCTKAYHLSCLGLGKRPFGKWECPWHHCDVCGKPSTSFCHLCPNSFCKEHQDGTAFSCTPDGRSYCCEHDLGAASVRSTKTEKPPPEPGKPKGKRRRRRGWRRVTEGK
# assay: Inhibition of NSD2 (unknown origin) using biotin-labeled histone substrate assessed as residual activity at 50 uM in presence of [3H-Me]SAM by scintillation proximity assay relative to control
recordedEndpoint: Activity (%)

O=C(c1cccc(Br)c1)N1CCC2CNCC2C1 (stereo not given) :: 97
O=C(c1cccc(Br)c1)N1CCC[C@@H]2CNC[C@@H]21 :: 101
O=C(c1cccc(Br)c1)N1CC[C@H]2NCC[C@H]2C1 :: 97
CN1CCCCC12CCCN(C(=O)c1cccc(Br)c1)C2 (stereo not given) :: 101
O=C(c1cccc(Br)c1)N1C[C@H]2CCCN[C@H]2C1 :: 89
CN1C[C@H]2CCCN(C(=O)c3cccc(Br)c3)[C@H]2C1 :: 96
O=C(c1cccc(Br)c1)N1CCCC2(CCCCN2)C1 (stereo not given) :: 96
CN1CCCC2(CCCN(C(=O)c3cccc(Br)c3)C2)C1 (stereo not given) :: 101
O=C(c1cccc(Br)c1)N1CCC2(CCNCC2)CC1 :: 103
CN1CCCC2(CCCN2C(=O)c2cccc(Br)c2)C1 (stereo not given) :: 105
C[N+]1(C)CCCCC12CCN(C(=O)c1cccc(Br)c1)CC2 :: 99
CN1CCC2(CCCN2C(=O)c2cccc(Br)c2)CC1 :: 99
O=C(c1cccc(Br)c1)N1CC[C@@H]2[C@@H](CC3CCCCN32)C1 (stereo not given in full) :: 98
CN1CCC[C@@H]2CN(C(=O)c3cccc(Br)c3)C[C@@H]21 :: 95
O=C(c1cccc(Br)c1)N1C[C@@H]2CC3CCCCN3[C@@H]2C1 (stereo not given in full) :: 96
